Data origin: PubChem BioAssay

Test system: Aerobactin synthetase IucA (Klebsiella pneumoniae)
Test: IucA aerobactin synthetase inhibitors, biochemical, Tocris library, absorbance (AID 1345561);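 also: 100% = enzyme without compound and 0% = no enzyme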
Conditions: purified IucA enzyme assay, absorbance (OD) read-out; hits give low values;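 tested at 8 µM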
parameter: remaining activity (%)
Report the value in % with no unit label.

QUERY: Form field: reported remaining activity of COc1ccc(C(=O)c2c(C)n(CCN3CCOCC3)c3cc(I)ccc23)cc1
RESULT: 93.9

QUERY: What does the data say about its remaining activity? Entry: O[C@H]1[C@H](O)[C@@H](O)CN2CC[C@H](O)[C@H]12
RESULT: 107

QUERY: Can you share its remaining activity? I mean this compound: COc1ccc(CNC(=O)/C=C/c2ccc3[nH]cc(CCN(C)C)c3c2)cc1
RESULT: 97.5

QUERY: # lookup: remaining activity of C[C@@H](N)Cc1cnc[nH]1
RESULT: 120

QUERY: Fill in the blank: the reported remaining activity of O=C(CCCN1CCC2(CC1)C(=O)NCN2c1ccccc1)c1ccc(F)cc1 is ____.
RESULT: 101

QUERY: Reported remaining activity, compound CCCCCOc1c(OC)ccc2cc(C(=O)NCc3ccc4c(c3)OCO4)c(=O)[nH]c12 : ____
RESULT: 107

QUERY: Suppose we examine the compound O=c1[nH]c2ccccc2n1CCCN1CCC(n2c(=O)[nH]c3cc(Cl)ccc32)CC1 ; what remaining activity value has been reported?
RESULT: 103

QUERY: // lookup remaining activity for O=[N+]([O-])c1cc(O)c(O)c([N+](=O)[O-])c1
RESULT: 95.2

QUERY: Quick check: remaining activity of C/C(O)=C(\C#N)C(=O)Nc1cc(Br)ccc1Br ?
RESULT: 116

QUERY: Query: remaining activity; subject: Cc1ccc2c(c1)Cc1c(C(=O)NC3CCCCC3)nn(-c3ccc(Cl)cc3Cl)c1-2
RESULT: 103

QUERY: Tell me the measured remaining activity of CCOc1cncc(/C=C/CCNC)c1 , please.
RESULT: 108

QUERY: Look up remaining activity for this compound: O=C(O)C(Cl)Cl
RESULT: 99.4

QUERY: Any idea what remaining activity was measured for Oc1ccc2c3c1O[C@H]1c4oc5ccccc5c4C[C@@]4(O)C(C2)N(CC2CC2)CC[C@]314 ?
RESULT: 104

QUERY: Look up remaining activity for this compound: N[C@@H](Cn1oc(=O)[nH]c1=O)C(=O)O
RESULT: 106

QUERY: I have this compound here, Cc1ccc(C[N+](C)(C)C)o1 , and I need its recorded remaining activity.
RESULT: 126

QUERY: Could you share which remaining activity value was measured for O=C1Nc2cc(Cl)c(Cl)cc2N2CCNCC12 (configuration not stated) ?
RESULT: 125

QUERY: // query remaining activity value for entry O=C1CN=C(c2cccc(Br)c2)c2oc3ccccc3c2N1
RESULT: 121

QUERY: So what does the record say about remaining activity for O=C(O)Cc1cccnc1C(=O)O ?
RESULT: 108

QUERY: Which value of remaining activity has been reported for CCC1(C2=NCCN2)Cc2ccccc2O1 (configuration not stated) in the records?
RESULT: 98.6

QUERY: What does the record list as remaining activity for Cc1ncsc1CCCl ?
RESULT: 110

QUERY: What value of measured remaining activity is listed for FC(F)(F)c1cccc(C2=CCN(CCc3ccc4ccccc4c3)CC2)c1 ?
RESULT: 94.1

QUERY: Please look up its remaining activity: Cc1cc(SCc2sc(-c3ccc(C(F)(F)F)c(F)c3)nc2C)ccc1OCC(=O)O
RESULT: 88.1

QUERY: I'd like to know its remaining activity. The compound in question is CC(C)(C)OC(=O)c1ncn2c1[C@@H]1CCCN1C(=O)c1c(Br)cccc1-2
RESULT: 103

QUERY: Bench note: what remaining activity did CN1[C@@H]2CC[C@H]1CC(OC(=O)N1Cc3ccccc3NC1=O)C2 (some centres not stated) show?
RESULT: 119

QUERY: What remaining activity value was documented for this compound, CC(C)CC(N)C1(c2ccc(Cl)cc2)CCC1 (configuration not stated) ?
RESULT: 120

QUERY: Would you kindly share the measured remaining activity for Oc1ccc2c3c1O[C@H]1c4c(c5ccccc5n4Cc4ccccc4)C[C@@]4(O)C(C2)N(CC2CC2)CC[C@]314 ?
RESULT: 94.5

QUERY: Give its remaining activity value. Item: O=C(O)C1=CCCN(CCOC(c2ccc(C(F)(F)F)cc2)c2ccc(C(F)(F)F)cc2)C1
RESULT: 122

QUERY: I would be grateful if you could share the reported remaining activity for Cn1cc(C(=O)C(=O)N[C@H]2CN3CCC2CC3)c2ccccc21 .
RESULT: 92.5

QUERY: What value of remaining activity has been reported for the following compound? C#CCOC(=O)C1=CCCN(C)C1
RESULT: 105

QUERY: GET /values?readout=remaining activity&item= Cc1ccc2c(c1)Cc1c(C(=O)NN3CCCCC3)nn(-c3ccc(Cl)cc3Cl)c1-2
RESULT: 102

QUERY: Give the measured remaining activity of Cc1nnc2ccc(-c3cccc(C(F)(F)F)c3)nn12 .
RESULT: 126

QUERY: Data request, read-out remaining activity, for CN1C(=O)CCS(=O)(=O)C1c1ccc(Cl)cc1 (configuration not stated)
RESULT: 97.1

QUERY: Tell me the measured remaining activity of CC1=NN=C(c2ccc(N)cc2)c2cc3c(cc2C1)OCO3 , please.
RESULT: 114

QUERY: Any idea what remaining activity was measured for COC(=O)/C=C/C(=O)N[C@@H]1CC[C@@]2(O)[C@H]3Cc4ccc(O)c5c4[C@@]2(CCN3CC2CC2)[C@H]1O5 ?
RESULT: 109

QUERY: Field request: remaining activity | item: NCC(CS(=O)(=O)O)c1ccc(Cl)cc1 (configuration not stated)
RESULT: 108

QUERY: May I ask what remaining activity has been recorded for S=C(NC1CCCCC1)N1CCC(c2cnc[nH]2)CC1 ?
RESULT: 89.7

QUERY: // returns reported remaining activity for input CCCN1CCC[C@@H]2Cc3[nH]ncc3C[C@H]21
RESULT: 126

QUERY: What does the data say about its remaining activity? Entry: Cc1nc(N)sc1CCN
RESULT: 88.4

QUERY: Sample Cn1c2c(c3ccccc31)CCNCC2 — what was its remaining activity?
RESULT: 98.4

QUERY: I would be grateful if you could share the reported remaining activity for c1cc(Cc2cnc[nH]2)ccn1 .
RESULT: 105

QUERY: Data request, read-out remaining activity, for C(=C\c1ccccc1)/CN1CCN(CCOC(c2ccccc2)c2ccccc2)CC1
RESULT: 119

QUERY: Record request: remaining activity value, item OC(Cc1ccncc1)C(Cl)(Cl)Cl (configuration not stated)
RESULT: 118

QUERY: remaining activity for CCC[C@@H]1CC2=CC(=O)CC[C@]2(C)[C@H]2CC[C@@]3(C)[C@@H](CC[C@@]3(O)CCC(=O)O)[C@H]12 ?
RESULT: 116

QUERY: What does the record list as remaining activity for NC(=NCc1ccc(Cl)cc1)SCCCc1cnc[nH]1 ?
RESULT: 102

QUERY: Entry Cc1[nH]c2ccc(Cl)cc2c1C1=CCNCC1 has what remaining activity?
RESULT: 103

QUERY: Reported remaining activity, compound CS(=O)(=O)Nc1ccc(Cc2noc(-c3ccc4[nH]cc(CCN)c4c3)n2)cc1 : ____
RESULT: 103

QUERY: Can you look up the measured remaining activity of CN(C(=O)Cc1ccccc1)C(CN1CCCC1)c1ccccc1 (configuration not stated) for me?
RESULT: 116
